Target: Tb-labeled inactive PDGFRβ (Homo sapiens (Human), UniProt P09619)
Sequence (P09619 whole entry, looked up): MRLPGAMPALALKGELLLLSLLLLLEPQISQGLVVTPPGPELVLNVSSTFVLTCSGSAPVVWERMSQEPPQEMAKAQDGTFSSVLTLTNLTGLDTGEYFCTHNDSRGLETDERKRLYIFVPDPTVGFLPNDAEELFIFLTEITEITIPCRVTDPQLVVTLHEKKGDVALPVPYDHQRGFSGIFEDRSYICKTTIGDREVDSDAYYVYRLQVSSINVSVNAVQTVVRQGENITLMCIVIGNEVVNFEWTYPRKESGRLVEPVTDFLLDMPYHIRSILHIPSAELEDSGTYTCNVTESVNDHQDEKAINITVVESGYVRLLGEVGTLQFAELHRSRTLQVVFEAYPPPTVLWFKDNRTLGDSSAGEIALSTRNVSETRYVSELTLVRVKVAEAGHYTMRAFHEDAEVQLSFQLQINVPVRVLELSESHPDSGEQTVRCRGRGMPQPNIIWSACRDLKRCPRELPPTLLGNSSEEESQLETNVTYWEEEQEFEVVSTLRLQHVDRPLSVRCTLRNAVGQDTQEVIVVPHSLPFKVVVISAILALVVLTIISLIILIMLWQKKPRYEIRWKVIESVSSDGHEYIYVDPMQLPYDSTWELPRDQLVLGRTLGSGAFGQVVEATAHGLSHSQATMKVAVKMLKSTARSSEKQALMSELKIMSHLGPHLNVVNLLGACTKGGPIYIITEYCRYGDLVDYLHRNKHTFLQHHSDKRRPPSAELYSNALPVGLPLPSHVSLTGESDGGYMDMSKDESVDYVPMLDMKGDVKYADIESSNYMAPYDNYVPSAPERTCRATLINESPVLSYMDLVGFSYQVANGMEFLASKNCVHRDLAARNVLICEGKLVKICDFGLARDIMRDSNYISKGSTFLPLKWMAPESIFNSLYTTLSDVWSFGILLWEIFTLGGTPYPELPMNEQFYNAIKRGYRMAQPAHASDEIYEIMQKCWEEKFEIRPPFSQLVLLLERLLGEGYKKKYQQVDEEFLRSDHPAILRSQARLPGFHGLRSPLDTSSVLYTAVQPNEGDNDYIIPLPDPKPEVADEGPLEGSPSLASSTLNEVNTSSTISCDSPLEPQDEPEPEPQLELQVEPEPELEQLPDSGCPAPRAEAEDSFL
Assay: biochemical
Format: binding
Details: read-out: PDGFR Lantha IC50
pIC50: −log10 of the molar value.
Readings of pIC50 for the listed compounds
experimental-endpoint: pIC50

| compound | measurement-target | val |
| --- | --- | --- |
| Cc1ncc(C(=O)NCCN2CCCC23CC3)cc1Nc1nn(C)c2nc(Nc3cncnc3)ncc12 | Tb-labeled inactive PDGFRβ (Homo sapiens (Human), UniProt P09619) | 8.25 |
| Cc1ncc(C(=O)NCCN2CCCC2(C)C)cc1Nc1nn(C)c2nc(Nc3ccc(N)nc3)ncc12 | Tb-labeled inactive PDGFRβ (Homo sapiens (Human), UniProt P09619) | 8.24 |
| Cc1cc(C(=O)NCCN2CCCOCC2)sc1Nc1nn(C)c2nc(Nc3cnn(C)c3)ncc12 | Tb-labeled inactive PDGFRβ (Homo sapiens (Human), UniProt P09619) | 7.92 |
| Cc1nn(C)cc1Nc1ncc2c(Nc3cc(C(=O)NCCN4CCC(C)(C)C4)cnc3C)nn(C)c2n1 | Tb-labeled inactive PDGFRβ (Homo sapiens (Human), UniProt P09619) | 7.88 |
| Cc1ncc(C(=O)NCCN(C)C2CCOCC2)cc1Nc1nn(C)c2nc(Nc3cncnc3)ncc12 | Tb-labeled inactive PDGFRβ (Homo sapiens (Human), UniProt P09619) | 8.00 |
| Cc1ncc(C(=O)NCCN2[C@H](C)COC[C@H]2C)cc1Nc1nn(C)c2nc(Nc3cnn(C)c3)ncc12 (relative stereo) | Tb-labeled inactive PDGFRβ (Homo sapiens (Human), UniProt P09619) | 8.68 |
| Cc1ncc(C(=O)NCCN2CC(C)(C)C2)cc1Nc1nn(C)c2nc(Nc3cncnc3)ncc12 | Tb-labeled inactive PDGFRβ (Homo sapiens (Human), UniProt P09619) | 8.02 |
| Cc1ncc(C(=O)NCCN2C[C@H](C)O[C@@H](C)C2)cc1Nc1nn(C)c2nc(Nc3ccncc3)ncc12 | Tb-labeled inactive PDGFRβ (Homo sapiens (Human), UniProt P09619) | 8.41 |
| Cc1ncc(NC(=O)C2(C(=O)N3CCNCC3)CC2)cc1Nc1nn(C)c2nc(Nc3cnn(C)c3)ncc12 | Tb-labeled inactive PDGFRβ (Homo sapiens (Human), UniProt P09619) | 6.83 |
| Cc1ncc(C(=O)NCCN2CCCC2(C)C)cc1Nc1nn(C)c2cc(Nc3cnn(C)c3)ncc12 | Tb-labeled inactive PDGFRβ (Homo sapiens (Human), UniProt P09619) | 7.32 |
| COCCn1cc(Nc2ncc3c(Nc4cc(NC(=O)CN5CCCC56CCC6)cnc4C)nn(C)c3n2)cn1 | Tb-labeled inactive PDGFRβ (Homo sapiens (Human), UniProt P09619) | 8.70 |
| C[C@H]1CCCN1CCNC(=O)c1ccc(F)c(Nc2nn(C)c3nc(Nc4cnn(C)c4)ncc23)c1 | Tb-labeled inactive PDGFRβ (Homo sapiens (Human), UniProt P09619) | 8.85 |
| CC(=O)Nc1cncc(Nc2ncc3c(Nc4cc(C(=O)NCCN5CCCC5(C)C)cnc4C)nn(C)c3n2)c1 | Tb-labeled inactive PDGFRβ (Homo sapiens (Human), UniProt P09619) | 8.23 |
| COCCn1cc(Nc2ncc3c(Nc4cc(NC(=O)CN5CCCC5(C)C)cnc4C)nn(C)c3n2)cn1 | Tb-labeled inactive PDGFRβ (Homo sapiens (Human), UniProt P09619) | 8.77 |
| Cc1ncc(C(=O)NCCN2CCCC2(C)C)cc1Nc1nn(C)c2nc(Nc3cncc(CC(=O)O)c3)ncc12 | Tb-labeled inactive PDGFRβ (Homo sapiens (Human), UniProt P09619) | 8.06 |
